target: Sentrin-specific protease 1 (Homo sapiens); experiment: Inhibition of SENP1 (unknown origin)
Experimental Readout: IC50

[[record]]
query_smiles = "Cc1cc(OCC(=O)Nc2nonc2NC(=O)COc2ccc(Cl)c(C)c2)ccc1Cl"
observed = "> 30 µM"

[[record]]
query_smiles = "CCCCOc1ccc(-c2nonc2NC(=O)COc2ccccc2C)cc1"
observed = "> 30 µM"


----------
Target: Sentrin-specific protease 1 (Homo sapiens, UniProt Q9P0U3)
Sequence (Q9P0U3 whole entry): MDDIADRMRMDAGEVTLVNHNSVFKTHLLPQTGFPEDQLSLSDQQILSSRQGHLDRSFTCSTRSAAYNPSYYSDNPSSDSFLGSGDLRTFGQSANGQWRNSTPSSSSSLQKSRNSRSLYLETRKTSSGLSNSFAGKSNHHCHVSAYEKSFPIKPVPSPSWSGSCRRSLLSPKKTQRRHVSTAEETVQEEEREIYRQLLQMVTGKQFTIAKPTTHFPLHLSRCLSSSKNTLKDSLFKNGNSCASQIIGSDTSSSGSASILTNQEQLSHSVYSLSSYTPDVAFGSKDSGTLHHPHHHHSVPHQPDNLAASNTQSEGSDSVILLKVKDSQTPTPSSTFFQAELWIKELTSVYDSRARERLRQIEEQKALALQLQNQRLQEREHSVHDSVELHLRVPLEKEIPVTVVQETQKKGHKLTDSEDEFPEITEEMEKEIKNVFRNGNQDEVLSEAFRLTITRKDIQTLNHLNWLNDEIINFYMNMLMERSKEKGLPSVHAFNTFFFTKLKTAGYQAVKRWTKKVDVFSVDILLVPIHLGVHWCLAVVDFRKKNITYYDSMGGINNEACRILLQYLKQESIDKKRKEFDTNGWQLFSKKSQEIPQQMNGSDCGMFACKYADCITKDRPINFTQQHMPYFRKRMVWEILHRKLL
Assay: Inhibition of human full-length recombinant SENP1
Experimental Readout: IC50 (nM)

[[record]]
query_smiles = "O=C(Cc1ccccc1)Oc1c(OC(=O)Cc2ccccc2)c(-c2ccc(O)cc2)c(O)c(O)c1-c1ccc(O)cc1"
observed = 1600

